I'd appreciate it if you could supply OD value values for the items below.
Target: T1, recombinant human regenerating islet-derived protein 1α (REG1A) (human, UniProt P05451 23-166, limits assumed)
T1 construct: also called recombinant human REG1A; recombinant REG1A
T1 sequence (looked up): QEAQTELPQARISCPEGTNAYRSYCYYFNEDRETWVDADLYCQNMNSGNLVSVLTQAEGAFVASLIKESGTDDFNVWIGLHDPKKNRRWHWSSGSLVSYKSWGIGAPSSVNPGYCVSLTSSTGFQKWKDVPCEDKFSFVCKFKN
Assay: sandwich ELISA; capture 25F3C4; REG1A 3.70 ng/mL
Number in OD, nothing else.

Which measured OD value value corresponds to antibody 11D11B11 (antibody, mouse IgG2a, kappa, V domains shown, Mouse monoclonal from hybridoma, stated mouse IgG1/Kappa; Used unlabelled as capture and biotin-labelled as detection antibody; also called 11D11B11-biotin) VH: DVKLVESGGGLVKPGGSLKLSCAASGFTFSSFSMSWFRQTPDKRLEWVATISSGGSSTYYPDSVKGRFTISRDNAKNTLYLQMTSLKSEDTAIFYCRGGYYGNYDPLDYWGQGTSVTVSA VL: DIVMIQSQKFMSTSVGDRVSITCTASHNVDSNVAWYQQKPGQSPQALIYSASYRYSGVPDRFTGSGSGTDFTLTINNVQSEDLAEYFCQQYNSYPLTFGGGTRLEIKR ? 0.076

Cool, now antibody 12F12A10 (antibody, V domains shown, Mouse monoclonal from hybridoma, stated mouse IgG1/Kappa; also called 12F12A10-biotin; Antibody 2) VH: QVQLQQSATELARPGASVKMSCKASGYTFTSYMMHWVKQRPGQGLEWIGYINPSSGYTDYNQKFKDKTTLTADKSSSTAYMQLSSLTSEDSAVYYCARYRYPHYFDYWGQGTTLTVSS VL: QIVLTQSPAIMSASPGEKVTMTCSASSSVSYIHWYQQKSGTSPKRWIYDTSKLASGVPARFSGSGSGTSYSLTISSMEAEDAAIYYCQQWSSNPPTFGAGTKLELKR 4.25

Cool, now antibody 4H8F1 (antibody, V domains shown, Mouse monoclonal from hybridoma, stated mouse IgG1/Kappa; also called 4H8F1-biotin; Antibody 1) VH: QVTLKESGPGILQPSQTLSLTCSFSGFSLSTSGMSVGWIRQPSGKGLEWLAHIWWNDDKFYNPALKSRLTISKDTSKNQIFLKIASVVTADSATYYCARIEEGWFAYWGQGTLVTVST VL: SIVMTQTPKFLLVSVGDRVTITCKASQTMSNDVAWYQQKPGQSPKLLIYYASNRYTGVPDRFTGSGYGTDFTFTISTVQAEDLAVYFCQQDYSSPLTFGAGTKLELKR 0.082

Cool, now antibody 21B11D2 (antibody, mouse IgG2b, kappa, V domains shown, Mouse monoclonal from hybridoma, stated mouse IgG1/Kappa; Used unlabelled as capture and biotin-labelled as detection antibody; also called 21B11D2-biotin) VH: QAQLQQSGAELVRPGASVTLSCKASGYIFTDYEMHWVKQTPVHGLEWIGAIDPETGGTAYNQKFKGKARLTADKSSSTAYMELRSLTSEDSAVYYCTIYYTNHFDYWGQGTTLTVSS VL: DVVMTQTPLSLPVSLGDQASISCRSSQSLVYSNGDTYLYWYLQKPGQSPKLLIYKVSNRFSGVPDRFSGSGSGTDFTLKISRVEAEDLGVYFCSQSTHVPLTFGAGTKLELKR 0.068
